# assay overview: in vitro
# Set-up: Viability of infected HeLa host cells, resazurin conversion, bulk resorufin fluorescence relative to DMSO
# test parameters: human, hela cells; bulk resorufin, mean of 3
readout kind: viability at 28.5 h, 0.333 µM (%)

compound | result unit | quantitative result
COc1ccc([C@@H]2CN(C)C[C@H]2NC(=O)Nc2ccc(Cl)c(Cl)c2)cc1OC [c39e] | % | 87.9
O=C(Nc1ccccc1N1CCCNCC1)c1ccc2ccccc2c1 [c29e] | % | 114
O=C1C(NCCO)=C(Nc2cccc(Cl)c2)C(=O)c2ccccc21 [c45e] | % | 92.8
Oc1ccccc1Nc1nc(NC2CCCC2)c2ccccc2n1 [c49e] | % | 87.8
O=C(Nc1ccc(OC(F)(F)F)cc1)Nc1cc(-c2cccs2)n[nH]1 [c26e] | % | 106
COc1ccc(C2CC(=O)C=C(Nc3cc(Cl)ccc3O)C2)cc1 (stereo not shown) [c24e] | % | 88.6
CC1=C(C)C(=NNC(N)=S)C(C)=C(C)C1=NNC(N)=S [c19e] | % | 104
Fc1cccc(F)c1OCCOc1nc(N2CCNCC2)ccc1C(F)(F)F [c21e] | % | 90.4
Cc1noc(-c2ccc3c(c2O)OCCO3)c1-c1ccc(Cl)cc1 [c20e] | % | 88.7
c1c(C2CC2)[nH]c2nc(N3CCCC3)nc(N3CCCC3)c12 [c7e] | % | 89.7

---

# assay overview: in vitro
# test parameters: human, hela cells, % viability
Reported viability at 28.5 h, 10 µM values for a set of molecules
readout kind: viability at 28.5 h, 10 µM

molecule | result
Cc1cc(C)c(C)c(S(=O)(=O)NCCCC(=O)O)c1C | 83.8%
Cc1c(Cl)cccc1S(=O)(=O)Nc1c(C(=O)O)[nH]c2ccccc12 | 86.5%
CCn1ncc(S(=O)(=O)N2CCC(c3cccc(Cc4ccccc4C)n3)CC2)c1C | 91%
O=C(N[C@H]1CO[C@H]2[C@@H]1OC[C@@H]2Nc1nccc(-c2cccs2)n1)C1CC1 | 95%
O=[N+]([O-])c1ccc(/C=N/n2c(S)nnc2COc2ccccc2)cc1 | 91.5%
N=C1OC2CSCC2N1C(=O)Cc1ccc(F)cc1 (stereo not drawn) | 103%
CC(C)(CO)CCCn1cncc1-c1cnn(-c2ccccc2)c1 | 96.9%
Cc1nnc(N2C(=O)c3oc4ccc(Cl)cc4c(=O)c3C2c2cccnc2)s1 (stereo not drawn) | 105%
O=C(Nc1ccccc1OC1CCNCC1)C1CCCO1 (stereo not drawn) [CBK045905T] | 91.1%
O=C(O)C(c1c[nH]c2ccccc12)N1CCc2ccccc2C1 (stereo not drawn) | 84.5%
Cc1nnc2sc(-c3cccc4ccccc34)nn12 | 39.8%
CC(C)Oc1ccc(C(=O)N2CCN(c3ccccc3)CC2)cc1 | 83.5%
CCCN1CCC(NC(=O)c2cc(COc3cccc(F)c3)[nH]n2)CC1 | 88.5%
CC1(C)CC(N(Cc2ccc(F)cc2)Cc2c[nH]cn2)CC(C)(C)N1 | 102%
O=C1NC[C@@H](CCC(=O)N2CCCCC2)N2C[C@@H](NS(=O)(=O)c3ccccc3)C[C@@H]12 | 92.9%
CCN1C(=O)c2ccccc2C(=O)[C@@]2(C)CN(CC(C)C)C[C@@H]12 | 102%
COc1ccc(C(C)C)cc1-c1cncc(NCC(C)(C)CO)n1 | 106%
O=C(c1ccnc2ccccc12)N1CCc2ccccc21 | 103%
Cc1c(S(=O)(=O)NCCN2CCNC2=O)cnn1-c1ccccc1 | 117%
O=C(NCc1ccccc1)c1cnccc1C(F)(F)F | 92.3%
Cc1c(C(=O)O)c(-c2ccc(Cl)cc2)cn1CCO | 87%
COc1cccc(C2CC(c3cccc(Cl)c3)n3nc(N)nc3N2)c1 (stereo not drawn) | 85.1%
Cc1cc(Cc2ccccc2Cl)cc(C2CCCN(CC(=O)N(C)C)C2)n1 (stereo not drawn) | 87.6%
CNS(=O)(=O)c1ccc(NC(=O)c2cc(-c3ccc4c(c3)OCO4)nc3ccccc23)cc1 | 99%
COc1ccc([C@@]23CC[C@@H](NC(=O)Nc4ccc(Cl)c(C(F)(F)F)c4)C[C@@H]2N(C)CC3)cc1OC [CBK038224C] | 98.4%
Clc1ccc(Nc2cncc(-c3cccs3)n2)cc1 | 107%
COc1ccc(CSc2nnc(SCc3ccc(C(=O)O)cc3)s2)cc1 | 104%
Cc1nc(C)n(CC2CCCN(Cc3nc4c(F)cccc4[nH]3)C2)n1 (stereo not drawn) | 110%
NNC(=O)CCc1ccccc1O | 97.2%
CCNc1nccnc1-c1cnc(OC)nc1OC | 93.9%
N#CC(c1ccc(Br)cc1)n1ccnc1 (stereo not drawn) | 85.6%
Nc1nc(N2CCCCC2)nc2ccccc12 | 114%
O=C(c1cc[nH]n1)N1CCCCC1c1ncc(-c2cccc(F)c2)[nH]1 (stereo not drawn) | 94.6%
COc1cc(-c2cnc(N)c(NCc3ccncc3)n2)cc(OC)c1OC | 94.8%
O=c1[nH]c2ccncc2c2ccccc12 [CBK016740C] | 92%
CN(CC(=O)N1CCC(Cc2ccccc2)CC1)S(=O)(=O)c1ccc2ccccc2c1 | 78.2%
O=C(CN1CCN(Cc2ccccc2)CC1)Nc1ccccc1Oc1ccccc1 | 90.2%
O=C(CCn1cccn1)N1Cc2ccccc2CC1C1CCOCC1 (stereo not drawn) | 83.8%
CC(=O)c1c(C)nc2nc(-c3ccncc3)nn2c1C | 106%

---

# assay overview: in vitro
# test parameters: human, hela cells, % viability
Peptide text beside a SMILES is read from it. * marks the point of attachment. Hydrocinnamoyl = O=C(CCc1ccccc1)*
Reported viability at 28.5 h, 10 µM values for a set of compounds

compound | result unit | viability at 28.5 h, 10 µM
O=C(O)CNC(=O)CNC(=O)CCc1ccccc1 [CBK286874] (Hydrocinnamoyl-Gly-Gly-OH) | % | 87.1
CC(=O)Nc1ccc(-c2csc(NC(=O)NS(=O)(=O)c3ccc(C)cc3)n2)cc1 | % | 107
CCOC(=O)CN1CCN(c2nccnc2OC2CCCCC2)CC1 [CBK082837T] | % | 102
O=C(Nc1ccc(Cl)cc1C(=O)O)c1ccccc1 | % | 87.5
CCOc1cc(/C=N/O)ccc1OC(=O)c1cccc([N+](=O)[O-])c1 | % | 107
COc1ccc(C(=O)N[C@H]2CO[C@H]3[C@@H]2OC[C@H]3OC(=O)Nc2ccccc2)cc1 | % | 103
CSc1nc(O)c(C(c2ccc(C)cc2)c2c(O)nc(SC)nc2O)c(O)n1 | % | 90.3
CCn1c2cc(C)sc2c2cnn(CC(=O)NC3CC3)c(=O)c21 | % | 89.3
COC(=O)[C@H]1CN(C(=O)Cc2ccccn2)C[C@@H]1c1ccc(F)cc1 | % | 93.8

---

Reported viability at 28.5 h, 10 µM values for a set of compounds
# assay overview: in vitro
# test parameters: human, hela cells, % viability
readout kind: viability at 28.5 h, 10 µM (%)

compound | quantitative result
Cc1ccc(Cc2cnc(NC(=O)CN3CSCC3=O)s2)cc1Cl [CBK305001] | 82
Cc1ccc(C2=CCN(CC(=O)Nc3ccccn3)CC2)o1 [CBK283634] | 98.7
CC(NC(=O)C(C)(C)C)c1nc(-c2ccncc2)n[nH]1 (stereo not drawn) [CBK104074] | 91.9
COC(=O)[C@@H]1Cc2ncn(C(C)C)c2CN1S(=O)(=O)c1ccc([N+](=O)[O-])cc1 [CBK288985] | 95.7
Cc1cccc(C)c1NC(=O)CN1CCN(c2nccnc2OCC2COc3ccccc3O2)CC1 (stereo not drawn) [CBK082801T] | 88.9
COC(=O)Cn1c(CN2CCN(c3cccc(Cl)c3)CC2)nc2c1c(=O)n(C)c(=O)n2C [CBK269598] | 86.7
Cc1cc(N(C)Cc2ccccc2Br)nc(N)n1 [CBK297753] | 70.2
O=C(CSC1c2ccccc2Sc2ccccc21)Nc1ccc(C(=O)O)cc1 [CBK267542] | 111
NC(=O)CSc1nnc(-c2cc3ccccc3o2)n1Cc1ccccc1 [CBK268964] | 90.1

---

Reported viability at 28.5 h, 10 µM values for a set of compounds
# assay overview: in vitro
# test parameters: human, hela cells, % viability

compound | result unit | viability at 28.5 h, 10 µM
Clc1ccc(CN2CCCN(c3nccc(OCC4COc5ccccc5O4)n3)CC2)cc1 (stereo not drawn) | % | 84.9
Cn1c(C(=O)Nc2ccc(Cn3cncn3)cc2)cc2cc(F)ccc21 | % | 104
Cc1ccc(Cl)cc1NC(=O)c1ccc(NCCN2C(=O)C3C4C=CC(C4)C3C2=O)c([N+](=O)[O-])c1 (stereo not drawn) | % | 92.2
O=C(Nc1nnc(-c2ccccc2)o1)C1COc2ccccc2O1 (stereo not drawn) | % | 103
O=C(NCc1ccc(C(F)(F)F)cc1)[C@@H]1Cc2[nH]cnc2CN1C1CCOCC1 | % | 103
CC(=O)Nc1ccc(CN2CCC[C@H]2c2nc(-c3ccnc(NS(C)(=O)=O)c3)no2)cc1 | % | 109
Cc1nnc(O)c2c(C)n(-c3ccc(Br)cc3)nc12 | % | 86.2
CN1CC(C(=O)NCC(c2ccccc2)N2CCCCCC2)CC1=O (stereo not drawn) | % | 105
O=C(CSc1nnc(-c2ccccc2O)n1-c1ccccc1)N1CCc2ccccc21 | % | 100
